- assay system: T1, human CD3 (human, UniProt P07766 23-207; P09693 23-182; P04234 22-171)
- T1 construct: whole, on cells; also called CD3 on Jurkat T cells; CD3 on primary human T cells
- assay overview: flow competition on Jurkat, 100 nM unlabeled mAb; competitor AF488-SP34.2 20 nM
For each of the binders below, state its % residual fluorescence of labeled mAb.
One number for each entry, in %.

binder	measurement units	% residual fluorescence of labeled mAb
F332-1C9 (antibody, mouse IgG2a, V domains shown, Sister clones 1A10, 5H8, 8B11 share the same entries; also called F332-1C9-2; F332-1C9 (1A10, 5H8, 8B11)) VH: QVQLQQPGAELGKPGTSVNLSCKASGYTFTSYWMHWVKQRPGQGLDWIGNINPNSGTTNYNEKFKSKATLTVDKSSSTAYMQLSTLTSEDSAVYYCTRDISGQYYFDYWGQGTSLTVSS VL: DIVMSQSPSSLAVSAGEKVTMSCKSSQSLLNSRTRKNYLAWYQQKPGQSPKLLIYWASTRESGVPDRFTGSGSGTDFTLIISSVQAEDLAVYYCKQSYSLRTFGGGTKLEIK	%	12

Consider the record given below.
**Q:** // lookup % residual fluorescence of labeled mAb for F332-4D6 (antibody, mouse IgG2a, V domains shown, also called F332-4D6-2; F322-4D6) VH: QVQLQQSGAELGKPGTSVKLSCKASGYTFTSYWIHWVKQRPGQGLEWIGNINPNSGSTNYNEKFKRKATLTADKSSSTAYMQLSTLTSEDFAVYYCTRDTSGQYYFDYWGQGTTLTVSS VL: DIVMSQSPSSLAVSAGEKVTMSCKSSQSLLNSRTRKNYLAWYQQKPGQSPKVLIYWASTRESGVPDRFTGSGSGTDFTLTISSVQAEDLAVYYCKQSYHLRTFGGGTKLEIK
**A:** 9
